Experiment: in vitro
Details: human, plasma, PPB
Residues, ends and D or L forms follow the SMILES beside them.
Decide using fraction unbound at 5 h alone. Strictly below 0.04: label 1. Equal to or above 0.04: label 0.

Answered examples (5):
# molecule, className
data = [
    ("O=C(Cc1ccc(Oc2ccccc2)cc1)NO", "label 1"),
    ("C[C@H](Nc1nc(Nc2ncc(C#N)s2)cc(N2CCOCC2)n1)c1ncc(F)cn1", "label 0"),
    ("CS(=O)(=O)c1ccc(-c2cc(C(F)(F)F)ccc2OCC(=O)O)c(Cl)c1", "label 0"),
    ("COc1cccc(C(=O)N2C(C(=O)O)CSC2c2ccccc2Cl)c1 (stereo unspecified)", "label 1"),
    ("CCCCCCCC(=O)N[C@@H](CCN)C(=O)N[C@@H](C)C(=O)N[C@@H](CCN)C(=O)N[C@H]1CCNC(=O)[C@H]([C@@H](C)O)NC(=O)[C@H](CCN)NC(=O)[C@H](CCN)NC(=O)[C@H](CC(C)C)NC(=O)[C@@H](Cc2ccccc2)NC(=O)[C@H](CCN)NC1=O (HELM PEPTIDE1{[CCCCCCCC(=O)[*:2]].[Dab].A.[Dab].[Dab].[Dab].[dF].L.[Dab].[Dab].T}$PEPTIDE1,PEPTIDE1,5:R3-11:R2$$$V2.0)", "label 0"),
]

Kindly consider the entry below.
For this molecule, is fraction unbound at 5 h lower than 0.04? CCOC(=O)[C@H](CCc1ccccc1)N[C@@H](C)C(=O)N1Cc2ccccc2C[C@H]1C(=O)O
label 0
